For each record, write down the corresponding T/C.
System: Mus musculus
assay: In vivo inhibition of hormone-dependent MXT mammary tumor in mice
Assay type: functional
Answers are plain numbers, in %.

- structureAsSmiles: "CC/C(=C(\\c1ccccc1)c1ccc(OCCN(C)C)cc1)c1ccccc1"
  studySystem: "Mus musculus"
  outputUnit: "%"
  T/C: 92

Batch request: T/C for each of the following molecules.
1. CCC(=C(c1ccc(OC(C)=O)c(OC(C)=O)c1)c1ccc(OC(C)=O)c(OC(C)=O)c1)c1ccccc1
2. CC/C(=C(/c1ccccc1)c1ccc(OC(C)=O)c(OC(C)=O)c1)c1ccccc1
3. CC/C(=C(/c1ccccc1)c1ccc(OC(C)=O)c(OC(C)=O)c1)c1ccc(OC(C)=O)c(OC(C)=O)c1
4. CC/C(=C(\c1ccccc1)c1cccc(OC(C)=O)c1)c1ccc(OC(C)=O)c(OC(C)=O)c1
5. CC/C(=C(\c1ccccc1)c1ccc(OC(C)=O)c(OC(C)=O)c1)c1ccc(OC(C)=O)cc1

1. 107
2. 106
3. 99
4. 87
5. 113

The reported measurements were obtained from ChEMBL document CHEMBL1123328.
